- target.or.system: T1, puroindoline A (Triticum aestivum, UniProt P33432 29-148)
- T1 construct: puroindoline A (PINA) of Triticum aestivum, purified from grain of cv; about 13 kDa, five disulfide bonds; matured by cleavages at both N- and C-termini, with forms that differ at the C-terminus; The Pina allele of cv; also called PINA; source: purified from the hard wheat Triticum aestivum cultivar Recital
- T1 sequence (looked up): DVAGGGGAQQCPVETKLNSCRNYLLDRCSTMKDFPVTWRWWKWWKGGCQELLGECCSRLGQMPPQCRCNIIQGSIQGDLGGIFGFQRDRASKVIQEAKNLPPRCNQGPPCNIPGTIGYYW
- method.description: SPR; same sensorgrams as the kinetic fit (immobilised (PQQPY)8, PINA 2 to 20 uM flowed, 25°C, Hepes buffer pH 7.4); steady-state fit, 1:1 Langmuir model
- details: both partners purified
pKd: −log10 of the molar value.
outcome.measure: pKd

[[record]]
binder = "PQQPYPQQPYPQQPYPQQPYPQQPYPQQPYPQQPYPQQPY (eight repeats of the pentapeptide PQQPY, written out from the printed formula (PQQPY)8; mimics the consensus repeat domain of gliadins; measured mass 4924.5 Da (theoretical 4924.3 Da); Released from thioredoxin-DP-(PQQPY)8 by formic acid; the printed theoretical mass of 4924.3 Da fits the 40 residues of eight repeats with no further residue; also called (Pro-Gln-Gln-Pro-Tyr)8; repetitive domain …) [recombinant polypeptide (PQQPY)8]"
outcome_measure = "pKd"
value = 5.14

